- experimental-target: Pol theta (1-899) (Homo sapiens, UniProt O75417)
- Construct: Pol theta (1-899) (5 nM) in assay buffer
- Sequence (O75417 1-899): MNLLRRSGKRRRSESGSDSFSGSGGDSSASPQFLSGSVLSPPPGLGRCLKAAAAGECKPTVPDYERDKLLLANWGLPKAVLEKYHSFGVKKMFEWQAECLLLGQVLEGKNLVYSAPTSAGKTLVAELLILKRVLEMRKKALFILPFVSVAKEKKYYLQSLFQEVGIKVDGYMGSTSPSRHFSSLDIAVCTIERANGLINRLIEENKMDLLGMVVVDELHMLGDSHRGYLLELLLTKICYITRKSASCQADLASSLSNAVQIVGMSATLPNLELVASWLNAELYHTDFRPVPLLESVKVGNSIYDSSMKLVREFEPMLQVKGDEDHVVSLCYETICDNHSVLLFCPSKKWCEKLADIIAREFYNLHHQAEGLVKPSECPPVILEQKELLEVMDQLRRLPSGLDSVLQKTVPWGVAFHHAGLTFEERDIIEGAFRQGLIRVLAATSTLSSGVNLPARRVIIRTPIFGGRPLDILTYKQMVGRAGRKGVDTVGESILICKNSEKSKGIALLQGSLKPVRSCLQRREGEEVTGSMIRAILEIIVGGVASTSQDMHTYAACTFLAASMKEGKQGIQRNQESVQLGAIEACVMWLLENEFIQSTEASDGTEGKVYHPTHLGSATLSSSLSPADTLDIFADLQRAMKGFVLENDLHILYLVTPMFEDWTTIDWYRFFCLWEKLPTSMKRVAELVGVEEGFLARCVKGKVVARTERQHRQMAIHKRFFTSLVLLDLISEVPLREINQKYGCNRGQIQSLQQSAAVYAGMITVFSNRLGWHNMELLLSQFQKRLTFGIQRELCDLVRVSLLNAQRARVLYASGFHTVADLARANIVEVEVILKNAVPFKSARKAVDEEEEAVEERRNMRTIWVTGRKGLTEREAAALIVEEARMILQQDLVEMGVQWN
- assay-remarks: Pol theta ATPase activity, NADH oxidation-coupled enzymatic assay (ATPase NADH coupling: Standard Screening: hPolQ)
- Assay type: biochemical
- measurement-context: Pol theta (1-899) 5 nM, NADH oxidation-coupled ATPase assay; compounds of Table 3
observable: IC50

Guide cases for IC50, answers given:
compound	observable	result
COc1nnc(NC(=O)c2cc(F)c(C)cc2-c2cc(Cl)ncc2OC)s1	IC50	≤ 0.2 µM
COc1nnc(NC(=O)c2cnc(C)cc2-c2ccc(C#N)nc2)s1	IC50	1 to 10 µM
COc1nnc(NC(=O)c2cnc(C)cc2-c2cnc(N)c(C#N)c2)s1	IC50	1 to 10 µM

Ask | Check the records and state IC50 for COc1cnc(Cl)cc1-c1cc(C)ncc1C(=O)Nc1nnc(O[C@H]2C[C@H]3C[C@@H]2C[C@@H]3O)s1 (single isomer, unassigned)
Reply | ≤ 0.2 µM

Ask | Check the records and state IC50 for COc1cnc(C)cc1-c1cc(C)ncc1C(=O)Nc1nnc(O)s1
Reply | 1 to 10 µM

Ask | Check the records and state IC50 for COc1nnc(NC(=O)c2cnc(C)cc2-c2ccsc2)s1
Reply | 1 to 10 µM

Ask | Check the records and state IC50 for COc1nnc(NC(=O)c2cnc(C)cc2-c2ccc3c(cnn3C)c2)s1
Reply | 0.5 to 1 µM
